- testedOn: T1, human serum albumin (human, UniProt P02768 25-609)
- T1 construct: also called HSA
- methodNotes: SPR, single-concentration injection over an HSA surface

# binder, binding result
measured = [
    ("B39-M75 (bispecific antibody, not shown: small tags and cut ends) QVQLVESGGGLVQAGGSLRLSCAASGLTFSRYVMGWFRQAPGKEREFVAAITWGGTPNYADSVKGRFTISRDNSKNTQYLQMNSLKPEDTAVYYCAAGLGWDSRYSQSYNYWGQGTQVTVSSGGGGSGGGGSGGGGSGGGGSGGGGSQVQLVESGGGFVQAGGSLRLSCAASGRTFDNYVMAWFRQAPGKEREFVASISGSGSITNYANSVKDRFTISRDSAKNAIYLQMNSLKPEDTALYYCAAGSRRTYYREPKFYPSWGQGTQVTVSS", "binds"),
    ("B39-R11 (bispecific antibody, not shown: small tags and cut ends) QVQLVESGGGLVQAGGSLRLSCAASGLTFSRYVMGWFRQAPGKEREFVAAITWGGTPNYADSVKGRFTISRDNSKNTQYLQMNSLKPEDTAVYYCAAGLGWDSRYSQSYNYWGQGTQVTVSSGGGGSGGGGSGGGGSGGGGSGGGGSQVKLEESGGGLVQAGGSLRLSCVGPGFLLRSNTMGWYRQAPGKERELVAFIRPSGLTNYNDAVQGRFTISRDNAKNTVYLQMNALKPEDTAVYYCHTRPPFQRDSWGQGTQVTVSS", "binds"),
]
